Tested on: Chilo suppressalis
Experiment Notes: Insecticidal activity against Chilo suppressalis, spraying of rice seedlings
Type: in vivo
Protocol Conditions: 72 h, 0.5 mg/L, parallel comparative test, read-out: Mortality (%, 3 days after administration) 0.5 mg/L
Reported Property: mortality at 0.5 µg/mL (%)
Report the figure in % without appending any unit label.

# count of solved cases: 2
[ask] I'd like to know its mortality at 0.5 µg/mL. The compound in question is Cc1cc(C2=NOC(c3cc(Cl)cc(Cl)c3)(C(F)(F)F)C2)ccc1C(=O)N(CC(=O)NCC(F)(F)F)C(=O)C1CC1 (stereo not drawn)
[reply] 83.3

[ask] And for CC(=O)N(CC(=O)NCC(F)(F)F)C(=O)c1ccc(C2=NOC(c3cc(Cl)cc(Cl)c3)(C(F)(F)F)C2)cc1C (stereo not drawn) [KC2, reference compound] ?
[reply] 53.3

Okay, now this compound:
[ask] I'd like to know its mortality at 0.5 µg/mL. The compound in question is CCC(=O)N(CC(=O)NCC(F)(F)F)C(=O)c1ccc(C2=NOC(c3cc(Cl)cc(Cl)c3)(C(F)(F)F)C2)cc1C (stereo not drawn) [KC3, reference compound]
[reply] 30

###

Measured mortality at 0.25 µg/mL accompanies every entry in the list below.
Test system: Chilo suppressalis
Experiment Notes: Insecticidal activity against Chilo suppressalis, spraying of rice seedlings
Format: in vivo
Protocol Conditions: 72 h, 0.25 mg/L, parallel comparative test, read-out: Mortality (%, 3 days after administration) 0.25 mg/L
In your response, the unit should come after the numeric value.

# count of solved cases: 2
[ask] I'd like to know its mortality at 0.25 µg/mL. The compound in question is COCC(=O)N(CC(=O)NCC(F)(F)F)C(=O)c1ccc(C2=NOC(c3cc(Cl)cc(Cl)c3)(C(F)(F)F)C2)cc1C (stereo not drawn) [Compound 19]
[reply] 86.7%

[ask] And for COC(=O)N(CC(=O)NCC(F)(F)F)C(=O)c1ccc(C2=NOC(c3cc(Cl)cc(Cl)c3)(C(F)(F)F)C2)cc1C (stereo not drawn) [KC1, reference compound] ?
[reply] 0%

Okay, now this compound:
[ask] I'd like to know its mortality at 0.25 µg/mL. The compound in question is CC(=O)N(CC(=O)NCC(F)(F)F)C(=O)c1ccc(C2=NOC(c3cc(Cl)cc(Cl)c3)(C(F)(F)F)C2)cc1C (stereo not drawn) [KC2, reference compound]
[reply] 0%

###

Measured mortality at 0.5 µg/mL accompanies every entry in the list below.
Tested on: Chilo suppressalis
Experiment Notes: Insecticidal activity against Chilo suppressalis, spraying of rice seedlings
Type: in vivo
Protocol Conditions: 72 h, 0.5 mg/L, parallel comparative test, read-out: Mortality (%, 3 days after administration) 0.5 mg/L
Report the figure in % without appending any unit label.

[ask] I'd like to know its mortality at 0.5 µg/mL. The compound in question is COCC(=O)N(CC(=O)NCC(F)(F)F)C(=O)c1ccc(C2=NOC(c3cc(Cl)cc(Cl)c3)(C(F)(F)F)C2)cc1C (stereo not drawn) [Compound 19]
[reply] 100

[ask] And for COC(=O)N(CC(=O)NCC(F)(F)F)C(=O)c1ccc(C2=NOC(c3cc(Cl)cc(Cl)c3)(C(F)(F)F)C2)cc1C (stereo not drawn) [KC1, reference compound] ?
[reply] 0

[ask] And for COCCC(=O)N(CC(=O)NCC(F)(F)F)C(=O)c1ccc(C2=NOC(c3cc(Cl)cc(Cl)c3)(C(F)(F)F)C2)cc1C (stereo not drawn) [Compound 31] ?
[reply] 96.7

Where do these numbers come from? They come from patent US12371410B2.
